# System: biotinyl-Phe-oxazolone
# Assay Remarks: self-aminoacylation, catalytic enhancement (BFO) (fold over background); higher = more active; k-Seq, kA / k0A0; sequences stand for … in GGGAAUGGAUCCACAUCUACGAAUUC…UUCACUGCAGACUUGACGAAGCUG
Variants at the floor of the assay were thinned out.
Measure Name: self-aminoacylation
Give bare numbers.

Look over these answered cases.
CCACACUUCAGACAAUCGGUC [Fam1B.1 aminoacylation ribozyme variant]    1.33
UACUUUGCUAAUAGUCGCAAG [Fam3.1 aminoacylation ribozyme variant]    2.71
AUUCACCUAGGGCAUCGCGUG [Fam2.2 aminoacylation ribozyme variant]    26.7
UAACACUUCAAGCAAUCGGUC [Fam1B.1 aminoacylation ribozyme variant]    25.6
CUACUUCAAACCAUCGGUCAG [Fam1A.1 aminoacylation ribozyme variant]    0.853

For each entry beneath this line, provide reported self-aminoacylation.
1. AUUACCCAGGUCAUGGAGUGA [Fam2.1 aminoacylation ribozyme variant]
2. AUUACCCUGGGUAUCGAGUGA [Fam2.1 aminoacylation ribozyme variant]
3. AUUUCCAUGGUCAUCGAGUGA [Fam2.1 aminoacylation ribozyme variant]
4. CCACUUAAAACAAUCGGUCUG [Fam1A.1 aminoacylation ribozyme variant]
5. UCGCACUUCAAGCAAUCGGUC [Fam1B.1 aminoacylation ribozyme variant]
6. AUUCAUCUAGGGCAUCGGGUG [Fam2.2 aminoacylation ribozyme variant]
7. AUUCACCUACGUCAGCGGGUG [Fam2.2 aminoacylation ribozyme variant]
8. ACUCACCUAGGUGAUCGGGUG [Fam2.2 aminoacylation ribozyme variant]

1: 8.43; 2: 57.8; 3: 52.5; 4: 0.816; 5: 55.1; 6: 21.4; 7: 31.4; 8: 39.2

Record self-aminoacylation per entry; entries follow.
1. CCACAAUUCAAGCAAUCGGUC [Fam1B.1 aminoacylation ribozyme variant]
2. AAUUUUGCUAAUAGUCGCCAG [Fam3.1 aminoacylation ribozyme variant]
3. AUCUCCCUGGUCAUCGAGUGA [Fam2.1 aminoacylation ribozyme variant]
4. CCACACUUCAAGCAAUCGGCA [Fam1B.1 aminoacylation ribozyme variant]
5. AAGUUUGUUGAUAGUCGCAAG [Fam3.1 aminoacylation ribozyme variant]

1: 2.8; 2: 2.69; 3: 27.2; 4: 1.07; 5: 1.36

----------
# Test system: biotinyl-Phe-oxazolone
# Assay Remarks: self-aminoacylation, catalytic enhancement (BFO) (fold over background); higher = more active; k-Seq, kA / k0A0; sequences stand for … in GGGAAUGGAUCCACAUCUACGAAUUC…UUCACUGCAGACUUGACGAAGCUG
Fewer inactive variants are shown than the library holds.
Give self-aminoacylation for every item shown.
One number for each entry.

Give me self-aminoacylation for each of these sequences, listed below.
1. CUUACCCUGGUCAUCGAAUGA [Fam2.1 aminoacylation ribozyme variant]
2. CAGUUUGCUAAUAGUCGAAAG [Fam3.1 aminoacylation ribozyme variant]

1.02
2.53

Go through the list and state self-aminoacylation for each entry.
1. CCACCUCAAACAAUCGGUCUG [Fam1A.1 aminoacylation ribozyme variant]
2. UUUACCCUGGUAAUCGAGUGA [Fam2.1 aminoacylation ribozyme variant]
3. ACACACUUCAAGCAAUAGGUC [Fam1B.1 aminoacylation ribozyme variant]
4. AAGUUGGCUAAUAGUCGCAAA [Fam3.1 aminoacylation ribozyme variant]

4.25
58.7
1.57
2.83

Give one value of self-aminoacylation per listed sequence.
1. GUACUCCAAACAAUCGGUCUG [Fam1A.1 aminoacylation ribozyme variant]
2. AUUACCCUGGUAAGCGAGUGA [Fam2.1 aminoacylation ribozyme variant]
3. AUUACUCUGGUCAUCGAGUGU [Fam2.1 aminoacylation ribozyme variant]
4. AAGUUUGCUCAUAGUCGUAAG [Fam3.1 aminoacylation ribozyme variant]
5. AAGAUUGCUAAAAGUCGCAAG [Fam3.1 aminoacylation ribozyme variant]
6. AUUCAACUAGGUCAUCGGGAG [Fam2.2 aminoacylation ribozyme variant]

1. 2.05
2. 42.1
3. 4.35
4. 14.6
5. 3.21
6. 0.48
